Provenance of the data: patent US10913736B2

Test system: T. brucei
Assay: Growth inhibition assay of T. brucei cell cultures (Alamar Blue, 48 h)
Assay type: cell-based
Conditions: Trypanosoma brucei; read-out: B) T. brucei EC50
Labelling field: enter Fulfilled if recorded EC50 is less than 2000 nM. Enter Not fulfilled if it equals or exceeds that cut-off.

Decide: EC50 of Clc1cc(Cl)cc(CN2CCC[C@H](c3nc4cc(Cl)ccc4[nH]3)C2)c1 strictly below 2000 nM?
Fulfilled

Now consider Clc1cc(Cl)c(OC2CC2)c(CN[C@H]2CCCN(c3nc4nc(Cl)ccc4[nH]3)C2)c1 .
Not fulfilled

And the next one, CC(=O)N(Cc1cc(Cl)cc(Cl)c1)[C@@H]1CCC[C@H](c2nc3nc(F)ccc3[nH]2)C1 ?
Not fulfilled

How about CC(Cc1nc2cc3ccccc3cc2[nH]1)NCc1cc(Cl)cc(Cl)c1 (centres unmarked) ?
Not fulfilled

O=C(NCc1nc2ccc(Cl)nc2[nH]1)Nc1cc(Cl)cc(Cl)c1 ?
Not fulfilled

How about this compound: O=C(CC(=O)Nc1ccc(Cl)cc1Cl)NCc1nc2ccccc2[nH]1
Not fulfilled

Quick one: Clc1ccc(CN2CCC[C@H](c3nc4nc(Cl)ccc4[nH]3)C2)c(Cl)c1
Fulfilled

Also CC(Cc1nc2cc(F)c(Cl)cc2[nH]1)NCc1cc(Cl)cc(Cl)c1 (centres unmarked) ?
Not fulfilled

Input Clc1cc(Cl)cc(Cn2cc(Cc3nc4ccccc4[nH]3)nn2)c1
Not fulfilled

Another compound to check: O=C(NCc1nc2ccc(F)cc2[nH]1)OCCc1ccc(Cl)cc1Cl
Not fulfilled

O=C1CN(C(=O)c2ccc3ccccc3c2)CCN1Cc1nc2ccccc2[nH]1 , same question.
Not fulfilled

Also need Clc1cc(Cl)cc(CNCCCc2nc3ccc(Cl)nc3[nH]2)c1 , thanks.
Fulfilled

Can you handle Clc1cc(Cl)cc(CNC2CCN(c3nc4nc(Cl)ccc4[nH]3)CC2)c1 next?
Not fulfilled

Try this compound next: O=C(Cc1cc(Cl)cc(Cl)c1)NC1CCCC(c2nc3nc(Cl)ccc3[nH]2)C1 (centres unmarked)
Not fulfilled

Follow-up entry: CCCOc1c(Cl)cc(Cl)cc1CN[C@H]1CCCN(c2nc3nc(Cl)ccc3[nH]2)C1
Fulfilled

Subsequent entry: Clc1cc(Cl)cc(NCCCNc2nc3ccc(Cl)nc3[nH]2)c1
Not fulfilled

What about this compound? O=c1[nH]c(Cc2ccc(Cl)cc2Cl)cn1Cc1nc2ccc(F)nc2[nH]1
Fulfilled

Here is the next compound: COc1ccc(Oc2ccnc(NCc3nc4ccccc4[nH]3)c2)c(Cl)c1
Fulfilled

Lookup Clc1cc(Cl)cc(CN2CCC[C@@H](c3nc4cc(Cl)ccc4[nH]3)C2)c1
Not fulfilled
